Heads up, these compounds all have IC50 values measured for PI3Kalpha (Homo sapiens (Human), UniProt P42336).

>  <Compound>
CCc1ncnc(-c2ccc(C(=O)N3CCC4(CCNCC4)C3)c(F)c2)c1C#Cc1ccc(N)nc1

>  <IC50 [µM]>
0.586

$$$$
>  <Compound>
CCc1ncnc(-c2ccc(C(=O)N3CCN(C4CCCC4)CC3)c(F)c2)c1C#Cc1ccc(N)nc1

>  <IC50 [µM]>
0.151

$$$$
>  <Compound>
CCc1ncnc(-c2cc(F)c(C(=O)N3CCn4c(COC)nnc4C3)c(F)c2)c1C#Cc1ccc(N)nc1

>  <IC50 [µM]>
0.0965

$$$$
>  <Compound>
CCCN1CCN(C(=O)c2c(F)cc(-c3ncnc(CC)c3C#Cc3ccc(N)nc3)cc2F)CC1

>  <IC50 [µM]>
0.133

$$$$
>  <Compound>
CCc1ncnc(-c2ccc(C(=O)N3CCN(Cc4ncon4)CC3)c(F)c2)c1C#Cc1ccc(N)nc1

>  <IC50 [µM]>
0.167

$$$$
>  <Compound>
CCc1ncnc(-c2ccc(C(=O)NC3CCS(=O)(=O)C3)c(F)c2)c1C#Cc1ccc(N)nc1 (stereo not shown)

>  <IC50 [µM]>
0.079

$$$$
>  <Compound>
CCNc1ccc(C#Cc2c(CC)ncnc2-c2ccc(C(=O)N3CCn4ccnc4C3)c(F)c2)cn1

>  <IC50 [µM]>
0.0638

$$$$

###

Molecular target: PI3Kalpha (Homo sapiens (Human), UniProt P42336)
Sequence (P42336 whole entry, looked up): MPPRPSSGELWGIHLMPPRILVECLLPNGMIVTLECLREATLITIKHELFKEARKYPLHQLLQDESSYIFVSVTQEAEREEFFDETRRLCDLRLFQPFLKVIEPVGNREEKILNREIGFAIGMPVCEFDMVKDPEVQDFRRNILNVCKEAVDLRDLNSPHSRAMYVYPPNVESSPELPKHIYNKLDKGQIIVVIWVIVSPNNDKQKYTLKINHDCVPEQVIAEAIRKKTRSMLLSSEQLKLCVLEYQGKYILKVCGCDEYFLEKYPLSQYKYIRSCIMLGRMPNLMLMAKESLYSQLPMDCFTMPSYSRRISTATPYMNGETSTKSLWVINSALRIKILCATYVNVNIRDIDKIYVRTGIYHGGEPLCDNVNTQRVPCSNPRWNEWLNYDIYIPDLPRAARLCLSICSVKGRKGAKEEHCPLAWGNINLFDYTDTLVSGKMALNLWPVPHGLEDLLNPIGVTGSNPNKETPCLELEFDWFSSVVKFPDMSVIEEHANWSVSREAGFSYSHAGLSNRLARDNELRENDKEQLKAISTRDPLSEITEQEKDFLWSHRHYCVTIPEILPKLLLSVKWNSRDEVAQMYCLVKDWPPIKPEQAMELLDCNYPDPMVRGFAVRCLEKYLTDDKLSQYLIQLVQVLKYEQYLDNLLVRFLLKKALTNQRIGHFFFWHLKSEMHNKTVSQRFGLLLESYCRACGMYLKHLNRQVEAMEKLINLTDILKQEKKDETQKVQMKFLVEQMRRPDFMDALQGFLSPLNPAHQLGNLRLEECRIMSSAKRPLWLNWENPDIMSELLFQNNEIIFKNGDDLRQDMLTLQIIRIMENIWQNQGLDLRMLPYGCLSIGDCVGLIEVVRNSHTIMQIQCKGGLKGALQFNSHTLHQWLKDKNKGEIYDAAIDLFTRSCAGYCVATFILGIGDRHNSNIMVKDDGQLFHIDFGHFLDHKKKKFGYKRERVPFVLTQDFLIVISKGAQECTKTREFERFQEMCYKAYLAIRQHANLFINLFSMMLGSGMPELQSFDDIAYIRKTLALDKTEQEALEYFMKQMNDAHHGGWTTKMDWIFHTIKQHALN
pIC50: −log10 of the molar value.
Each record here notes measured pIC50.

>  <Molecule>
CCc1ncnc(-c2ccc(C(=O)NC3CCN(C)CC3)c(F)c2)c1C#Cc1ccc(N)nc1

>  <pIC50>
6.36

$$$$
>  <Molecule>
CCc1ncnc(-c2cc(F)c(C(=O)N3CCC(C(C)O)CC3)c(Cl)c2)c1C#Cc1ccc(N)nc1 (stereo not drawn)

>  <pIC50>
7.04

$$$$
>  <Molecule>
CCc1ncnc(-c2cc(F)c(C(=O)N3CCn4cnnc4C3)c(Cl)c2)c1C#Cc1ccc(N)nc1

>  <pIC50>
7.74

$$$$
>  <Molecule>
CCc1ncnc(-c2ccc(C(=O)N3CCCC(N(C)C)C3)c(Cl)c2)c1C#Cc1ccc(N)nc1 (stereo not drawn)

>  <pIC50>
6.56

$$$$
>  <Molecule>
CCc1ncnc(-c2cc(F)c(C(=O)N(C)C)c(F)c2)c1C#Cc1ccc(N)nc1

>  <pIC50>
7.31

$$$$
>  <Molecule>
CCc1ncnc(-c2ccc(C(=O)N3CC[C@H](N(C)C)C3)c(Cl)c2)c1C#Cc1ccc(NC)nc1

>  <pIC50>
6.76

$$$$
>  <Molecule>
CCc1ncnc(-c2ccc(C(=O)N3CCC[C@@H]3CO)c(F)c2)c1C#Cc1ccc(N)nc1

>  <pIC50>
6.92

$$$$
>  <Molecule>
CCc1ncnc(-c2ccc(C(=O)N3C[C@H]4CNC[C@H]4C3)c(F)c2)c1C#Cc1ccc(N)nc1

>  <pIC50>
6.22

$$$$
>  <Molecule>
CCc1ncnc(-c2ccc(C(=O)N3CCN(C(C)COC)CC3)c(Cl)c2)c1C#Cc1ccc(N)nc1 (stereo not drawn)

>  <pIC50>
6.91

$$$$
>  <Molecule>
CCc1ncnc(-c2ccc(C(=O)N3CC(O)CO3)c(OC)c2)c1C#Cc1ccc(N)nc1 (stereo not drawn)

>  <pIC50>
7.13

$$$$
>  <Molecule>
CCc1ncnc(-c2ccc(C(=O)N3CCC(N4CCCC4)C3)c(F)c2)c1C#Cc1ccc(N)nc1 (stereo not drawn)

>  <pIC50>
6.65

$$$$
>  <Molecule>
CCc1ncnc(-c2ccc(C(=O)N3CCN(C)C(C)(C)C3)c(F)c2)c1C#Cc1ccc(N)nc1

>  <pIC50>
6.46

$$$$
>  <Molecule>
CCc1ncnc(-c2ccc(C(=O)N3CCN(c4ccccn4)CC3)c(C)c2)c1C#Cc1ccc(N)nc1

>  <pIC50>
7.16

$$$$
>  <Molecule>
CCc1ncnc(-c2ccc(C(=O)N3CCC(N4CCOCC4)CC3)c(F)c2)c1C#Cc1ccc(N)nc1

>  <pIC50>
6.63

$$$$
>  <Molecule>
CCc1ncnc(-c2ccc(C(=O)N3CCOCC3)c(C)c2)c1C#Cc1ccc(N)nc1

>  <pIC50>
7.23

$$$$

###

// IC50 collected for PI3Kalpha (Homo sapiens (Human), UniProt P42336)
Readout name: IC50 (µM)

>  <Molecule>
CCc1ncnc(-c2ccc(C(=O)N3CCN(C4CCOCC4)CC3)c(Cl)c2)c1C#Cc1ccc(N)nc1 [Example D-31]

>  <Endpoint result>
0.097

$$$$
>  <Molecule>
CCc1ncnc(-c2cc(F)c(C(=O)N3CCN(CC(F)F)CC3)c(F)c2)c1C#Cc1ccc(NC)nc1 [Example E-217]

>  <Endpoint result>
0.327

$$$$
>  <Molecule>
CCc1ncnc(-c2cc(F)c(C(=O)N3CCN(CC4CC4)CC3)c(F)c2)c1C#Cc1ccc(N)nc1 [Example E-7]

>  <Endpoint result>
0.189

$$$$
>  <Molecule>
CCc1ncnc(-c2cc(F)c(C(=O)N3CCN(CC)CC3)c(F)c2)c1C#Cc1ccc(N)nc1 [Example E-3]

>  <Endpoint result>
0.276

$$$$

###

Target: PI3Kalpha (Homo sapiens (Human))
pIC50: −log10 of the molar value.
Label Y when pIC50 is at or above 7; anything below gets N.

>  <Compound>
CCc1ncnc(-c2ccc(C(=O)N3CCC(N4CCC(C)CC4)C3)c(F)c2)c1C#Cc1ccc(N)nc1 [Example D-108]

>  <Assayed target>
PI3Kalpha (Homo sapiens (Human))

>  <Assigned label>
N

$$$$
>  <Compound>
Cc1ncnc(-c2ccc(C(=O)N3CCCCO3)c(F)c2)c1C#Cc1ccc(N)nc1 [Example D-227]

>  <Assayed target>
PI3Kalpha (Homo sapiens (Human))

>  <Assigned label>
Y

$$$$
>  <Compound>
CCc1ncnc(-c2ccc(C(=O)N3CCN(C4CC4)CC3)c(F)c2)c1C#Cc1ccc(N)nc1C [Example D-13]

>  <Assayed target>
PI3Kalpha (Homo sapiens (Human))

>  <Assigned label>
N

$$$$

###

A set of molecules tested on PI3Kalpha (Homo sapiens (Human), UniProt P42336), with measured IC50:
Readout name: IC50 (nM)

>  <Molecule>
CCc1ncnc(-c2ccc(C(=O)N(C)C3CCS(=O)(=O)C3)c(OC)c2)c1C#Cc1ccc(N)nc1 (stereo not drawn) [Example E-61]

>  <Assayed target>
PI3Kalpha (Homo sapiens (Human), UniProt P42336)

>  <Unit spec>
nM

>  <Endpoint result>
103

$$$$
>  <Molecule>
CCc1ncnc(-c2ccc(C(=O)N3CCC(C4CCN(C)CC4)CC3)c(C)c2)c1C#Cc1ccc(N)nc1 [Example E-119]

>  <Assayed target>
PI3Kalpha (Homo sapiens (Human), UniProt P42336)

>  <Unit spec>
nM

>  <Endpoint result>
281

$$$$
>  <Molecule>
CCc1ncnc(-c2ccc(C(=O)N3CCCC(O)C3)c(OC)c2)c1C#Cc1ccc(N)nc1 (stereo not drawn) [Example E-46]

>  <Assayed target>
PI3Kalpha (Homo sapiens (Human), UniProt P42336)

>  <Unit spec>
nM

>  <Endpoint result>
104

$$$$
>  <Molecule>
CCc1ncnc(-c2ccc(C(=O)N3CCN(C)C[C@H]3C)c(F)c2)c1C#Cc1ccc(N)nc1 [Example E-347]

>  <Assayed target>
PI3Kalpha (Homo sapiens (Human), UniProt P42336)

>  <Unit spec>
nM

>  <Endpoint result>
205

$$$$
>  <Molecule>
CCc1ncnc(-c2ccc(C(=O)N3CCN4CCC[C@@H]4C3)c(Cl)c2)c1C#Cc1ccc(N)nc1 [Example E-139]

>  <Assayed target>
PI3Kalpha (Homo sapiens (Human), UniProt P42336)

>  <Unit spec>
nM

>  <Endpoint result>
160

$$$$
>  <Molecule>
CCc1ncnc(-c2ccc(C(=O)N3CCN(C(C)C)CC3)c(OC)c2)c1C#Cc1ccc(N)nc1 [Example D-50]

>  <Assayed target>
PI3Kalpha (Homo sapiens (Human), UniProt P42336)

>  <Unit spec>
nM

>  <Endpoint result>
211

$$$$
>  <Molecule>
CON(C)C(=O)c1ccc(-c2ncnc(C)c2C#Cc2ccc(N)nc2)cc1F [Example D-229]

>  <Assayed target>
PI3Kalpha (Homo sapiens (Human), UniProt P42336)

>  <Unit spec>
nM

>  <Endpoint result>
65

$$$$
>  <Molecule>
CCc1ncnc(-c2ccc(C(=O)NC3CC(N4CCN(C)CC4)C3)c(F)c2)c1C#Cc1ccc(N)nc1 [Example D-198]

>  <Assayed target>
PI3Kalpha (Homo sapiens (Human), UniProt P42336)

>  <Unit spec>
nM

>  <Endpoint result>
203

$$$$
>  <Molecule>
CCc1ncnc(-c2ccc(C(=O)N3CCNCC3)c(C)c2)c1C#Cc1ccc(N)nc1 [Example E-127]

>  <Assayed target>
PI3Kalpha (Homo sapiens (Human), UniProt P42336)

>  <Unit spec>
nM

>  <Endpoint result>
158

$$$$
>  <Molecule>
CCc1ncnc(-c2ccc(C(=O)N3CCCC(O)C3)c(Cl)c2)c1C#Cc1ccc(N)nc1 (stereo not drawn) [Example E-29]

>  <Assayed target>
PI3Kalpha (Homo sapiens (Human), UniProt P42336)

>  <Unit spec>
nM

>  <Endpoint result>
65

$$$$
>  <Molecule>
CCN(CC)C(=O)c1cccc(-c2ncnc(C)c2C#Cc2ccc(N)nc2)c1 [Example C-36]

>  <Assayed target>
PI3Kalpha (Homo sapiens (Human), UniProt P42336)

>  <Unit spec>
nM

>  <Endpoint result>
308

$$$$
>  <Molecule>
CCc1ncnc(-c2ccc(C(=O)N3CCN4CCCC[C@@H]4C3)c(F)c2)c1C#Cc1ccc(N)nc1 [Example E-145]

>  <Assayed target>
PI3Kalpha (Homo sapiens (Human), UniProt P42336)

>  <Unit spec>
nM

>  <Endpoint result>
358

$$$$
>  <Molecule>
CCc1ncnc(-c2ccc(C(=O)N3CC[C@@H](O)C3)c(Cl)c2)c1C#Cc1ccc(N)nc1 [Example D-146]

>  <Assayed target>
PI3Kalpha (Homo sapiens (Human), UniProt P42336)

>  <Unit spec>
nM

>  <Endpoint result>
66

$$$$
>  <Molecule>
CCc1ncnc(-c2cc(F)c(C(=O)N(C)C3CCN(C)CC3)c(F)c2)c1C#Cc1ccc(N)nc1 [Example E-176]

>  <Assayed target>
PI3Kalpha (Homo sapiens (Human), UniProt P42336)

>  <Unit spec>
nM

>  <Endpoint result>
491

$$$$
>  <Molecule>
CCc1ncnc(-c2ccc(C(=O)N3CCC(OC)CC3)c(Cl)c2)c1C#Cc1ccc(N)nc1 [Example E-24]

>  <Assayed target>
PI3Kalpha (Homo sapiens (Human), UniProt P42336)

>  <Unit spec>
nM

>  <Endpoint result>
93.5

$$$$
